// values below are log10 of IC50; system is UniProt P0DTD1
Lab note - IC50 converted to log10 from values in µM.

Sample answers from the record:
[[record]]
compound = "O=C(Nc1cncc2ccccc12)C12CCC(O1)c1ccc(Cl)cc12 (stereo not given)"
metric_name = "log10 of IC50"
assay_result = 1.05

[[record]]
compound = "CN(C)S(=O)(=O)c1cccc(C(=O)Nc2c(-c3ccccc3)nc3sccn23)c1"
metric_name = "log10 of IC50"
assay_result = -0.01

[[record]]
compound = "O=C(Nc1cncc2ccccc12)C1CN(C(=O)c2cnco2)Cc2ccc(Cl)cc21 (stereo not given)"
metric_name = "log10 of IC50"
assay_result = 0.03

[[record]]
compound = "CN(c1ccc2c(NC(=O)C3CN(S(=O)(=O)CC4(C#N)CC4)Cc4ccc(Cl)cc43)cncc2c1)S(C)(=O)=O (stereo not given)"
metric_name = "log10 of IC50"
assay_result = -0.63

[[record]]
compound = "CC(C)(C)c1ccc(N(C(=O)c2cnco2)C(C(=O)NCCc2cccc(F)c2)c2cccnc2)cc1 (stereo not given)"
metric_name = "log10 of IC50"
assay_result = 0.68

[[record]]
compound = "O=C(Cc1cc(Cl)cc(NC(c2ccccc2)c2ccccc2)c1)Nc1cncc2ccccc12"
metric_name = "log10 of IC50"
assay_result = 0.53


Prompt: Test system UniProt P0DTD1; read-out log10 of IC50; what value for `N#Cc1ccc(Cl)c(Nc2cc(Cl)cc(CC(=O)Nc3cncc4ccccc34)c2)c1` ?
Response: 0.30

Prompt: Query the reported log10 of IC50 for UniProt P0DTD1; item: CN(C)C(C(=O)Nc1cncc2ccccc12)c1ccc(Cl)c(Cl)c1 (stereo not given)
Response: 0.63

Prompt: Notebook entry, UniProt P0DTD1 assay: log10 of IC50 of O=C(CC1(C(=O)Nc2cncc3ccccc23)CCOc2ccc(Cl)cc21)N1CCCC1c1nn[nH]n1 (stereo not given) = ?
Response: 0.90

Prompt: Which log10 of IC50 is reported with UniProt P0DTD1 for this entry: `COc1ccc(N(Cc2cccc(Cl)c2)C(=O)Cn2nnc3ccccc32)cc1` ?
Response: 0.06

Prompt: Checklist item: log10 of IC50 tested on UniProt P0DTD1, entry COC(C)(C)CS(=O)(=O)N1Cc2ccc(Cl)cc2C(C(=O)Nc2cncc3ccccc23)C1 (stereo not given) , value?
Response: -0.70

Prompt: Give log10 of IC50 (UniProt P0DTD1) of the following compound: CC1NC(=O)c2ccc(Cl)cc2C1C(=O)Nc1cncc2ccc(S(C)(=O)=O)cc12 (stereo not given)
Response: 0.30

Prompt: Fill in the recorded log10 of IC50 for this compound, with UniProt P0DTD1 as test system: CC(C)(C)c1ccc(N(C(=O)c2c[nH]nn2)C(C(=O)NCCc2cccc(F)c2)c2cccnc2)cc1 (stereo not given)
Response: 0.07

====

MEASUREMENT_TARGET: SARS-CoV-2 Main Protease (SARS-CoV-2)
pIC50: −log10 of the molar value.
Threshold check on pIC50: at or above 5 gives Y, strictly below gives N.

Known results for compounds:
[[record]]
compound = "Cc1nc2scc(C)n2c1CN1CCN(Cc2ccsc2)CC1"
qualitative_label = "N"

[[record]]
compound = "O=C(c1cc(=O)[nH]c2ccccc12)N1CCN(c2cccc(C(F)(F)F)c2)CC1"
qualitative_label = "Y"

[[record]]
compound = "N#Cc1cc(Cl)ccc1Nc1cc(Cl)cc(CC(=O)Nc2cncc3ccccc23)c1"
qualitative_label = "Y"

[[record]]
compound = "C[C@H](C/C=C/C(C)(C)O)[C@H]1CC[C@@]2(C)[C@@H]3C=C[C@@]45OC[C@]3(CC[C@]12C)[C@@H]4CC[C@H](O)C5(C)C (stereo in doubt)"
qualitative_label = "N"


Next item in the queue.
Prompt: Hi, just wondering whether COc1ccc(C(Cc2cnn(C)c2)C(=O)Nc2c[nH]c3ccccc23)cc1 (stereo not given) shows pIC50 of 5 or higher.
Response: N
